Reported inhibition by item:
- measurement-description: TR-FRET optical interference artefacts, confirmation, artefact control for LEDGF/p75-dependent integration inhibitor project, biochemical, HIV-1 IN multimerization (AID 1053135);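 note: 0% = integrase with antibodies and DMSO and 100% = antibodies without integrase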
- experimental-parameters: TR-FRET optical interference counterscreen, at 7.7 µM, hits give high values
The list shows a part of the results.
readout-label: inhibition (%)

>  <compound>
Cc1c(CC(=O)N2CCN(C(=O)C3COc4ccccc4O3)CC2)c(=O)oc2c(O)c(O)ccc12 (stereo unspecified)

>  <endpoint-result>
-84.6

$$$$
>  <compound>
O=C(Nc1nnc(-c2ccco2)o1)c1ccc(S(=O)(=O)N2CCOCC2)cc1

>  <endpoint-result>
-4.01

$$$$
>  <compound>
CN(C)[C@@H]1C(=O)C(C(N)=O)=C(O)[C@@]2(O)C(=O)C3=C(O)c4c(O)ccc(Cl)c4[C@@H](O)[C@H]3C[C@@H]12

>  <endpoint-result>
-24.2

$$$$
>  <compound>
Cc1cc(C(=O)NN=C/C=C/c2ccco2)n[nH]1

>  <endpoint-result>
-36.8

$$$$
>  <compound>
Oc1cccc(/C=N/Nc2ccc(Cl)nn2)c1O

>  <endpoint-result>
-36.1

$$$$
>  <compound>
CCOC(=O)c1ccc(NC(=O)CSc2ncccn2)cc1

>  <endpoint-result>
1.28

$$$$
